// data source = paper PMC4550876

MEASURED ON: V30M mutated TTR (Homo sapiens, UniProt P02766, V50M)
Construct: made in house
ASSAY REMARKS: Acid-mediated aggregation experiment (thioflavin T assay) of amyloid fibril formation
Type: biochemical
TEST PARAMETERS: 20 μM compound, 10 μM V30M, pH 4.5, 310 K, 96 h; read-out: Inhibition ratio at 20 μM
EXPERIMENTAL READOUT: inhibition at 20 µM (%)
All answers are understood in %, so give the number only.

COMPOUND	inhibition at 20 µM (%)
O=c1c2cc(O)c(O)cc2oc2cc(O)cc(O)c12 [Compound 8, norathyriol]	79
CC(C)=CCc1c(O)cc2oc3cc(O)c(O)c(CCC(C)(C)O)c3c(=O)c2c1O [Compound 7, garcinone C]	83
O=c1c2cc(O)c(O)cc2oc2cc(O)c([C@@H]3O[C@H](CO)[C@@H](O)[C@H](O)[C@H]3O)c(O)c12 [Compound 12, mangiferin]	8.5

Okay, next one:
Item COc1c(O)cc2oc3cc(O)c(CC=C(C)C)c(O)c3c(=O)c2c1CC=C(C)C [Compound 1, α-mangostin] was tested on V30M mutated TTR (Homo sapiens, UniProt P02766, V50M); the reported inhibition at 20 µM is 61

---

Property: EC50; scope: individual molecules
MEASURED ON: V30M mutated TTR (Homo sapiens, UniProt P02766, V50M)
ASSAY REMARKS: Acid-mediated aggregation experiment (thioflavin T assay) of amyloid fibril formation
TEST PARAMETERS: 10 μM V30M, pH 4.5, 310 K, 96 h, 0–20 μM compound, thioflavin T fluorescence
All answers are understood in µM, so give the number only.

MOLECULE	UNIT	EC50
COc1c(O)cc2oc3cc(O)c(CC=C(C)C)c(O)c3c(=O)c2c1CC=C(C)C [Compound 1, α-mangostin]	µM	15

The measured EC50 associated with CC(C)=CCc1c(O)cc2oc3cc(O)c(O)c(CC=C(C)C)c3c(=O)c2c1O [Compound 4, γ-mangostin] reads 7

---

MEASURED ON: V30M mutated TTR (Homo sapiens, UniProt P02766, V50M)
Construct: made in house
ASSAY REMARKS: Acid-mediated aggregation experiment (thioflavin T assay) of amyloid fibril formation
Type: biochemical
TEST PARAMETERS: 20 μM compound, 10 μM V30M, pH 4.5, 310 K, 96 h; read-out: Inhibition ratio at 20 μM
EXPERIMENTAL READOUT: inhibition at 20 µM (%)
All answers are understood in %, so give the number only.

The measured inhibition at 20 µM associated with CC(C)=CCc1c(O)c(CC=C(C)C)c2oc3c(O)ccc(O)c3c(=O)c2c1O [Compound 5, gartanin] reads 30

The measured inhibition at 20 µM associated with COc1c(O)cc2oc3cc4c(c(O)c3c(=O)c2c1CC=C(C)C)C=CC(C)(C)O4 [Compound 3, 9-hydroxycalabaxanthone] reads 29

The measured inhibition at 20 µM associated with O=c1c2ccc(O)c(O)c2oc2c(O)c(O)ccc12 [Compound 10, 3,4,5,6-tetrahydroxyxanthone] reads 25

The measured inhibition at 20 µM associated with CC(C)=CCc1c(O)cc2oc3cc(O)c(O)c(CC=C(C)C)c3c(=O)c2c1O [Compound 4, γ-mangostin] reads 97
